Tested on: Wnt activity (Sp5-Luc reporter, SW480 colon carcinoma cells)
experiment description: Wnt activity screening assay, Sp5-Luc reporter gene in SW480 cells
Format: cell-based
settings: Homo sapiens, SW480; read-out: percent inhibition at 10 μM
assay metric: inhibition at 10 µM (%)
Report the value in % with no unit label.

Inquiry: Any idea what inhibition at 10 µM was measured for CN(C)Cc1cncc(-c2ccc3[nH]nc(-c4cc5c(-c6cccc(F)c6)ccnc5[nH]4)c3c2F)c1 [Compound 994] ?
Reply text: 20.8

Inquiry: Any idea what inhibition at 10 µM was measured for Cc1ccncc1-c1ccc2[nH]nc(-c3cc4c(-c5ccccc5F)ccnc4[nH]3)c2c1 [Compound 61] ?
Reply text: 3.5

Inquiry: Any idea what inhibition at 10 µM was measured for CCCC(=O)Nc1cncc(-c2ccc3[nH]nc(-c4cc5c(-c6ccc(F)cc6)ccnc5[nH]4)c3c2)c1 [Compound 45] ?
Reply text: 11

Inquiry: Any idea what inhibition at 10 µM was measured for CN(C)c1cncc(-c2ccc3[nH]nc(-c4cc5c(-c6ccccn6)ccnc5[nH]4)c3c2)c1 [Compound 147] ?
Reply text: 13.7
